# TEST SYSTEM: T1, human IL-2Rβ (human, UniProt P14784 27-240, limits assumed)
# T1 construct: also called hIL-2Rβ; IL-2 receptor beta
# T1 sequence (looked up): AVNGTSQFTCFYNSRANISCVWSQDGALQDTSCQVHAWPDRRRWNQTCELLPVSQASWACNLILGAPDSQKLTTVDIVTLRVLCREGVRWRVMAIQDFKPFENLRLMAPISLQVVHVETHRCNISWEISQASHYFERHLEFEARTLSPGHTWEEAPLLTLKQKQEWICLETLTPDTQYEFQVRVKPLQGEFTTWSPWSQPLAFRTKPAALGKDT
# PROTOCOL DETAILS: SPR, steady state
ASSAY ENDPOINT: Kd (nM)

A. hIL-15 V49R/H32A (ligand) NWVNVISDLKKIEDLIQSMHIDATLYTESDVAPSCKVTAMKCFLLELQRISLESGDASIHDTVENLIILANNSLSSNGNVTESGCKECEELEEKNIKEFLQSFVHIVQMFINTGGGGSGHHHHHHHHGGGLNDIFEAQKIEWHE
B. hIL-15 V49R/N1E (ligand) EWVNVISDLKKIEDLIQSMHIDATLYTESDVHPSCKVTAMKCFLLELQRISLESGDASIHDTVENLIILANNSLSSNGNVTESGCKECEELEEKNIKEFLQSFVHIVQMFINTGGGGSGHHHHHHHHGGGLNDIFEAQKIEWHE
C. hIL-15 V49R/N72A (ligand) NWVNVISDLKKIEDLIQSMHIDATLYTESDVHPSCKVTAMKCFLLELQRISLESGDASIHDTVENLIILANASLSSNGNVTESGCKECEELEEKNIKEFLQSFVHIVQMFINTGGGGSGHHHHHHHHGGGLNDIFEAQKIEWHE
(Q) Sort the listed binders above so the one with the largest Kd comes first and the smallest comes last. List the labels, following the order given in the request.
(A) B, A, C

A. hIL-15 V49R/N1T (ligand) TWVNVISDLKKIEDLIQSMHIDATLYTESDVHPSCKVTAMKCFLLELQRISLESGDASIHDTVENLIILANNSLSSNGNVTESGCKECEELEEKNIKEFLQSFVHIVQMFINTGGGGSGHHHHHHHHGGGLNDIFEAQKIEWHE
B. hIL-15 V49R/M109S (ligand) NWVNVISDLKKIEDLIQSMHIDATLYTESDVHPSCKVTAMKCFLLELQRISLESGDASIHDTVENLIILANNSLSSNGNVTESGCKECEELEEKNIKEFLQSFVHIVQSFINTGGGGSGHHHHHHHHGGGLNDIFEAQKIEWHE
C. hIL-15 V49R/K11F (ligand) NWVNVISDLKFIEDLIQSMHIDATLYTESDVHPSCKVTAMKCFLLELQRISLESGDASIHDTVENLIILANNSLSSNGNVTESGCKECEELEEKNIKEFLQSFVHIVQMFINTGGGGSGHHHHHHHHGGGLNDIFEAQKIEWHE
(Q) Sort by Kd, descending. Return value: ordered labels per request.
(A) B, A, C
(B: 362 nM, A: 249 nM, C: 162 nM)

a. hIL-15 V49R/H32W (ligand) NWVNVISDLKKIEDLIQSMHIDATLYTESDVWPSCKVTAMKCFLLELQRISLESGDASIHDTVENLIILANNSLSSNGNVTESGCKECEELEEKNIKEFLQSFVHIVQMFINTGGGGSGHHHHHHHHGGGLNDIFEAQKIEWHE
b. hIL-15 V49R/H32K (ligand) NWVNVISDLKKIEDLIQSMHIDATLYTESDVKPSCKVTAMKCFLLELQRISLESGDASIHDTVENLIILANNSLSSNGNVTESGCKECEELEEKNIKEFLQSFVHIVQMFINTGGGGSGHHHHHHHHGGGLNDIFEAQKIEWHE
(Q) Please state the entry with greater Kd among a and b . Write down the label of the entry you select.
(A) a
(a: 376 nM, b: 149 nM)

# credit: patent US20210324028A1
